Hi there, I'd appreciate the recorded inhibition at 1 µM for every entry that follows.
Target: leukotriene B4 specific receptor on the membrane of human neutrophils (Homo sapiens)
Construct: a specific receptor on the membrane of human neutrophils; endogenous in cells; host or cells: human peripheral blood neutrophils (buffy coats of two blood donors; intact cells, at least 90% neutrophils)
Sequence (Q15722 whole entry): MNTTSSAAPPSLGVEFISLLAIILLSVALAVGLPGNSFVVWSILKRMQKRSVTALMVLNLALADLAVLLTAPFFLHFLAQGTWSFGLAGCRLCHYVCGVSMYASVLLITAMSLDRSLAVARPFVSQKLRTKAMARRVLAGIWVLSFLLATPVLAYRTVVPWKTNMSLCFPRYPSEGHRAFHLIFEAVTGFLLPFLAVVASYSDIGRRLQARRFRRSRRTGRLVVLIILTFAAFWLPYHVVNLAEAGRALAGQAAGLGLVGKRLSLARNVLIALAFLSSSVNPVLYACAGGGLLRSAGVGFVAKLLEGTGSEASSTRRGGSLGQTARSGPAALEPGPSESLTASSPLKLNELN
Assay: Inhibition of Binding of ^3H-LTB4 to Peripheral Human Neutrophils (radio-ligand binding assay)
Details: Drug Concentration 10^-6 M; 0.1-0.2 nM ^3H-LTB4, 10 minutes at 4° C.; read-out: LTB4 Binding Inhibition (percent inhibition)
Give bare numbers, in %.

{"substance smiles": "CCCCCCCCCCOc1ccc2c(=O)c3cc(C(=O)O)ccc3oc2c1CCC(=O)O", "units of measure": "%", "inhibition at 1 µM": 86}
{"substance smiles": "COc1ccc(C=CCCCCOc2ccc3c(=O)c4cc(C(=O)O)ccc4oc3c2CCC(=O)O)cc1", "units of measure": "%", "inhibition at 1 µM": 99}
{"substance smiles": "CCCCCCCCCCOc1cc2oc3c(C(=O)O)cccc3c(=O)c2cc1CCC(=O)O", "units of measure": "%", "inhibition at 1 µM": 25}

Hey, quick one: what's inhibition at 1 µM for each of these?
1. CCCCCCCCCCOc1ccc2c(=O)c3cccc(C(=O)O)c3oc2c1CCC(=O)O
2. COc1ccc(CCCCCCOc2ccc3c(=O)c4cc(C(=O)O)ccc4oc3c2CCC(=O)O)cc1
3. CCCCCCCCCCOc1cc2oc3ccc(C(=O)O)cc3c(=O)c2cc1CCC(=O)O
4. CCCCCCCCCCOc1cc2c(cc1CCC(=O)O)C(=O)c1cc(C(=O)O)ccc1-2

Out:
1. 27
2. 103
3. 23
4. 19

---

Hi there, I'd appreciate the recorded inhibition at 0.1 µM for every entry that follows.
Molecular target: leukotriene B4 specific receptor on the membrane of human neutrophils (Homo sapiens)
Construct: a specific receptor on the membrane of human neutrophils; endogenous in cells; host or cells: human peripheral blood neutrophils (buffy coats of two blood donors; intact cells, at least 90% neutrophils)
Test: Inhibition of Binding of ^3H-LTB4 to Peripheral Human Neutrophils (radio-ligand binding assay)
Details: Drug Concentration 10^-7 M; 0.1-0.2 nM ^3H-LTB4, 10 minutes at 4° C.; read-out: LTB4 Binding Inhibition (percent inhibition)
One number for each entry, in %.

Below: 6 compounds and their reported inhibition at 0.1 µM.
{"substance smiles": "CCCCCCCCCCOc1ccc2c(=O)c3cc(C(=O)O)ccc3oc2c1CCC(=O)O", "tested target": "leukotriene B4 specific receptor on the membrane of human neutrophils (Homo sapiens)", "inhibition at 0.1 µM [%]": 52}
{"substance smiles": "COc1ccc(CCCCCCOc2ccc3c(=O)c4cc(C(=O)O)ccc4oc3c2CCC(=O)O)cc1", "tested target": "leukotriene B4 specific receptor on the membrane of human neutrophils (Homo sapiens)", "inhibition at 0.1 µM [%]": 85}
{"substance smiles": "CCCCCCCCCCOc1cc2oc3c(C(=O)O)cccc3c(=O)c2cc1CCC(=O)O", "tested target": "leukotriene B4 specific receptor on the membrane of human neutrophils (Homo sapiens)", "inhibition at 0.1 µM [%]": 2}
{"substance smiles": "COc1ccc(C=CCCCCOc2ccc3c(=O)c4cc(C(=O)O)ccc4oc3c2CCC(=O)O)cc1", "tested target": "leukotriene B4 specific receptor on the membrane of human neutrophils (Homo sapiens)", "inhibition at 0.1 µM [%]": 91}
{"substance smiles": "CCCCCCCCCCOc1cc2c(cc1CCC(=O)O)C(=O)c1cc(C(=O)O)ccc1-2", "tested target": "leukotriene B4 specific receptor on the membrane of human neutrophils (Homo sapiens)", "inhibition at 0.1 µM [%]": -4}
{"substance smiles": "CCCCCCCCCCOc1ccc2c(=O)c3cccc(C(=O)O)c3oc2c1CCC(=O)O", "tested target": "leukotriene B4 specific receptor on the membrane of human neutrophils (Homo sapiens)", "inhibition at 0.1 µM [%]": -7}

In: Please state recorded inhibition at 0.1 µM (tested on leukotriene B4 specific receptor on the membrane of human neutrophils (Homo sapiens)) of CCCCCCCCCCOc1cc2oc3ccc(C(=O)O)cc3c(=O)c2cc1CCC(=O)O
Out: -4
